Measured ΔLag; nucleation assay; 100 mole % values are reported for all entries that follow.
- Assay System: natural β-amyloid peptide β-AP1-40 (human)
- Sequence (peptide, as listed by the source): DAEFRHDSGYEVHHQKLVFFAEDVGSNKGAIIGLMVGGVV
- Experimental Details: cell-based or functional assay
Square brackets hold non-standard residues; d marks the D form. Primed or numbered codes have the meaning given here. * marks the point of attachment. Cholyl = C[C@H](CCC(=O)*)[C@H]1CC[C@H]2[C@@H]3[C@H](O)C[C@@H]4C[C@H](O)CC[C@]4(C)[C@H]3C[C@H](O)[C@]12C; Aic″ = 3-(O-aminoethyl-iso)-cholyl
// units = ratio; emit number, no label

Answered cases to consult:
1) Cholyl-[dL][dV][dF][dF][dA]-OH [CA-LVFFA-oh (all D amino acids)] = 2.8
2) Cholyl-Leu-Val-Phe-OH (SMILES CC(C)C[C@H](NC(=O)CC[C@@H](C)[C@H]1CC[C@H]2[C@@H]3[C@H](O)C[C@@H]4C[C@H](O)CC[C@]4(C)[C@H]3C[C@H](O)[C@]12C)C(=O)N[C@H](C(=O)N[C@@H](Cc1ccccc1)C(=O)O)C(C)C) [CA-LVF-oh] = 1.3

For the next question, use this binder.
Fill in the blank: the reported ΔLag; nucleation assay; 100 mole % of H-LVFFA[Aic″]-OH [h-LVFFA-(Aic)-oh] is ____.
3.5
